Hey, just so you know, these numbers are from PubChem BioAssay (NCI).

Tested on: SK-MEL-28 melanoma
testDetails: NCI tumour cell line growth inhibition, 48 h
Answer each item with its documented GI50.

# input Output reported GI50 of the compound Clc1ccc2c(c1)-c1ccccc1C1=NCCN12 on SK-MEL-28 melanoma.
# output 1740 nM

# input Look up and report GI50, with SK-MEL-28 melanoma as system, for COC(=O)c1cc2oc(/C=C3\SC(=S)N(NC(C)=O)C3=O)cc2n1Cc1ccccc1
# output 9060 nM

# input Quote GI50 with test system SK-MEL-28 melanoma for C=C1CC[C@@H]2[C@](C)(COC(C)=O)[C@H](OC(C)=O)CC[C@@]2(C)[C@@H]1C/C=C1/C(=O)OC[C@H]1OC(C)=O
# output 1750 nM

# input Report its GI50 with SK-MEL-28 melanoma as the test system: C=C1C(=O)O[C@H]2[C@H]1CC/C(CNS(=O)(=O)c1cccc3ccccc13)=C\CC[C@@]1(C)O[C@@H]21
# output 1970 nM

# input Look up and report GI50, with SK-MEL-28 melanoma as system, for O=C(/C=C/c1ccc(C(F)(F)F)cc1)c1ccc(Nc2nc(NCCO)nc(N3CCOCC3)n2)cc1
# output 3250 nM

====

Consider the following compounds; for each one, report its TGI.
Tested on: CAKI-1 renal
testDetails: NCI tumour cell line growth inhibition, 48 h
Field: numeric (µM). Do not append units.

# input Provide the reported TGI (system: CAKI-1 renal) for S=C(Nc1ccccc1)N(Cc1ccccc1)c1ccccc1
# output 90.3

# input Provide TGI, tested on CAKI-1 renal, for C=C(C)[C@H](O)C(O)CC(C)[C@@H]1CCC23CC12CCC1[C@@]2(C)CCC(OC(C)=O)C(C)(C)C2CC(OC2OC(COC(C)=O)C(O)C(O)C2O)[C@]13C (some centres undefined) .
# output 12.1

# input Find TGI for O=[N+]([O-])c1ccc(NC(=S)Nc2ccccn2)cc1 on CAKI-1 renal and write it down.
# output 18.9

# input Quote TGI with test system CAKI-1 renal for CC1OC(OC2C(O[C@@H]3C[C@@H]4CC[C@@H]5[C@H](CC[C@]6(C)C7C(C[C@@H]56)O[C@]5(CC[C@@H](C)CO5)[C@H]7C)[C@@]4(C)C[C@H]3O)OC(CO)C(O)C2O)C(O)C(O)C1O (some centres undefined)
# output 3.22

====

System: SR leukemia
testDetails: NCI tumour cell line growth inhibition, 48 h
measuredParameter: TGI

# input Answer with the recorded TGI of CC(C)c1ccc2[nH]c(O)c(C3=Nc4ccccc4C3=O)c2c1 only.
# output 54.5 µM

# input Consider the molecule NC(CCSC(F)F)C(=O)O (stereo not given) . State its measured TGI.
# output > 100 µM

# input Give the reported value of TGI for this record: Cc1cc(-c2nc3cc(O)ccc3s2)ccc1N
# output > 100 µM

# input Specify measured TGI for COc1ccc2c(c1)OC(N)=C(C#N)C2c1ccc(F)cc1 (stereo not given) .
# output > 100 µM

# input Item CC(C)c1nc2c(Cl)c3ncccc3cc2[nH]c1=O : provide TGI
# output > 100 µM

# input State its TGI for this molecule: Nc1nc(Cl)cc(NCCCCCCCCCCCCNc2cc(Cl)nc(N)n2)n1
# output > 100 µM

# input Fill in TGI for record COC(=O)/C=C(/C(=O)OC)c1c(C)cc2c(C)cc(C)cc(C)c1-2
# output > 100 µM

# input Provide TGI value for the following molecule: CC1OC(OC2C(O[C@@H]3C[C@@H]4CC[C@@H]5[C@H](CC[C@]6(C)C7C(C[C@@H]56)O[C@]5(CC[C@@H](C)CO5)[C@H]7C)[C@@]4(C)C[C@H]3O)OC(CO)C(O)C2O)C(O)C(O)C1O (stereo not given in full)
# output 5.24 µM

# input Answer with the recorded TGI for the molecule listed here: C[CH2][Sn]([Cl])([Cl])[CH2]C
# output > 100 µM

# input Indicate the recorded TGI value for this molecule: O=C1CCc2cc3c(cc21)CC1(Cc2cc4c(cc2C1)CCCC4)C3
# output 47.7 µM

====

Provide the reported TGI of each item.
Tested on: HCT-116 colon
testDetails: NCI tumour cell line growth inhibition, 48 h
Reply with just the number (in µM).

# input Find the measured TGI of CN(C)CCCNc1ccc2nnn3c4ccc(OC(=O)c5ccc([N+](=O)[O-])cc5)cc4c(=O)c1c23 and report it.
# output 32.7

# input For O=C1NC(=NC2CCCCC2)C2(CCN(CCCC3(c4ccc(F)cc4)OCCO3)CC2)N1c1ccccc1 , write its TGI.
# output 24.7

# input Output measured TGI for this item: CC[N+]1(C)CCC(O)(/C=C/c2ccc(Cl)cc2)C(C(=O)/C=C/c2ccc(Cl)cc2)C1 (centres undefined)
# output 29.1

# input Given CCCCCCCCCCCC[n+]1ccc(C(N)=O)cc1 , respond with its TGI.
# output 20.5

====

Provide the reported log10 of TGI of each item.
System: SF-295 CNS
testDetails: NCI tumour cell line growth inhibition, 48 h
In our notation, the value equals log10 of TGI in µM.

# input Assign log10 of TGI to the following record: O=C1C(=C(C(=O)c2ccccc2)C(=O)c2ccccc2)OC(c2ccccc2)=C1C(=O)c1ccccc1
# output 1.51

# input Report log10 of TGI, nothing else, for this molecule: [C-]#[N+]C(C)(C)C[C@H]1CC(C)C2CCC(C)C3([N+]#[C-])CCC(=C)C1[C@H]23 (stereo partly drawn)
# output 1.38

# input Kindly indicate its recorded log10 of TGI. Item: O=Cc1ccc(O)c2ncccc12
# output 1.12

# input Return log10 of TGI (reported value) for this molecule: O=C(NCCN1CCCC1)c1cn2c(ccc3sc4ccccc4c(=O)c32)n1
# output 1.43

# input Give the reported value of log10 of TGI for this record: Cc1ccc(/C(O)=C/c2nc3ccccc3[nH]c2=O)c(C)c1
# output 1.72

# input Find the measured log10 of TGI of COc1ccc([C@H](NC(=O)c2ccccc2)[C@@H](O)C(=O)O[C@H]2C[C@@]3(O)C(OC(=O)c4ccccc4)C4[C@](C)(C(=O)[C@H](OC(C)=O)C(=C2C)C3(C)C)[C@@H](O)C[C@H]2OC[C@@]42OC(C)=O)cc1 (stereo partly drawn) and report it.
# output 0.47

# input Return the recorded log10 of TGI value; entry: COC(=O)/C(=C\c1cn(C(C)=O)c2ccccc12)P(=O)(OC)OC
# output 1.45

# input Look up and state reported log10 of TGI for OC(CNc1ccnc2cc(Cl)ccc12)CNC1CCCCC1 (stereo not drawn)
# output 0.69

====

Give TGI for every item shown.
Test system: CCRF-CEM leukemia
testDetails: NCI tumour cell line growth inhibition, 48 h

# input Look up and state reported TGI for CC1=NN(C(=O)c2ccc(Cl)cc2)C(=O)/C1=C/c1ccc(O)cc1
# output > 100 µM

# input Fill in reported TGI for this entry: C1=NCCNCCN=Cc2ccccc2OCc2cccc(n2)COc2ccccc21
# output > 34.3 µM

# input Please give the documented TGI of O=C1c2c(nc3ccccc3c2-c2ccccc2)CN1Nc1ccccc1
# output > 100 µM

# input Answer with the recorded TGI for the molecule listed here: c1ccc(SC(CCCCOC2CCCCO2)Sc2ccccc2)cc1 (stereo unspecified)
# output 93.1 µM

# input Supply measured TGI of COc1ccc2c(c1)OC(N)=C(C#N)C2c1ccc(F)cc1 (stereo unspecified) in your reply.
# output > 100 µM

# input For the molecule COc1ccc2nc3ccc(OC)cc3c(SCC3CO3)c2c1 (stereo unspecified) , give its reported TGI.
# output > 100 µM

# input Please give the documented TGI of O=Cc1ccc(-c2cccc([N+](=O)[O-])c2)s1
# output > 100 µM

# input Return the recorded TGI value; entry: CC(C)c1nc2c(Cl)c3ncccc3cc2[nH]c1=O
# output > 100 µM

# input Check the records and state TGI for CCOC(=O)C#Cc1c(CC(=O)OCC)nnn1[C@H]1O[C@@H](CO)[C@@H]2OC(C)(C)O[C@@H]21
# output 4.97 µM

# input Please list TGI recorded for the molecule CN(C)/C=C/c1ccncc1
# output > 100 µM

# input In one line, give reported TGI of the entry Cc1csc2nc3[nH]ncc3c(=O)n12 .
# output > 100 µM

# input Kindly indicate its recorded TGI. Item: COc1cc(C2c3cc4c(cc3OC(NCc3ccccc3)C2C)OCO4)cc(OC)c1OC (stereo unspecified)
# output 26.5 µM

# input # return recorded TGI for entry NC(CCSC(F)F)C(=O)O (stereo unspecified)
# output > 100 µM

# input Tell us which TGI value is on record for CCOC(=O)c1nc2ccccc2nc1Oc1ccc(OC)cc1
# output > 100 µM

# input Quick one: give measured TGI for CC1(C)C2C/C(=C\c3ccccc3)C(=O)C1C2 (stereo unspecified)
# output > 100 µM

# input Retrieve TGI measured for NCCCCN(Cc1nc2ccccc2[nH]1)[C@H]1CCCc2cccnc21 and print it.
# output 56.3 µM

# input Output TGI of CC(C)CCCC(C)[C@H]1CC[C@H]2[C@@H]3CC[C@H]4C[C@@H](CCC=C(c5cc(Cl)c(O)c(C(=O)O)c5)c5cc(Cl)c(O)c(C(=O)O)c5)CC[C@]4(C)[C@H]3CC[C@]12C (stereo partly specified) (tested in a mixture with another compound)
# output > 50 µM

# input Hello, please tell me recorded TGI for this one: O=c1n(CCCCn2c(=O)n(CC3CS3)c3ccccc32)c2ccccc2n1CC1CS1 (stereo unspecified)
# output 81.4 µM

# input Respond only with TGI recorded for C=C(C)[C@H](O)C(O)CC(C)[C@@H]1CCC23CC12CCC1[C@@]2(C)CCC(OC(C)=O)C(C)(C)C2CC(OC2OC(COC(C)=O)C(O)C(O)C2O)[C@]13C (stereo partly specified)
# output 9.7 µM

# input Give TGI for the following molecule: COc1cc(-c2oc(C=Nc3ccccc3)c([N+](=O)[O-])c2-c2ccc(O)c(OC)c2)ccc1O
# output > 100 µM

# input Return TGI (reported value) for this molecule: COc1ccc(NS(=O)c2ccc(OC)cc2)cc1 (stereo unspecified)
# output > 100 µM
